System: Foxtail, Giant (giant foxtail, Setaria faberi)
Assay: Test A1 preemergence, Foxtail, Giant
Format: in vivo
Settings: 125 g ai/ha, 0 to 100 scale, 0 no effect, 100 complete control
Field: label. Allowed values: TRUE (Plant response rating, Foxtail, Giant < 90) or FALSE (Plant response rating, Foxtail, Giant >= 90).

Consider the following illustrative entries.
{"compound": "COCC1CC(c2cc(NS(=O)(=O)C(F)(F)F)c(C)cc2C)=NO1 (stereo not shown)", "group": "FALSE"}
{"compound": "CCOC(=O)N(c1cc(C(=O)N2CCC(C)CC2)c(C)cc1C)S(=O)(=O)C(F)(F)F", "group": "FALSE"}
{"compound": "Cc1c(C2=NOC3(CCCC3)C2)cc(N(COC(=O)C(C)(C)C)S(=O)(=O)C(F)(F)F)c(C)c1C", "group": "TRUE"}
{"compound": "Cc1c(NS(=O)(=O)C(F)(F)F)cc(C(=O)N2CCC(Cl)CC2)c(C)c1C", "group": "FALSE"}
{"compound": "Cc1c(C(=O)N2CCCCC2)cc(NS(=O)(=O)C(F)(F)F)c(Cl)c1F", "group": "FALSE"}
{"compound": "Cc1ccc(C2=NOC3CCCC23)cc1NS(=O)(=O)C(F)(F)F (stereo not shown)", "group": "TRUE"}

Does this compound meet the criterion Plant response rating, Foxtail, Giant < 90? CCOC(=O)N(c1cc(C(=O)N2CCCCC2)c(C)c(C)c1C)S(=O)(=O)C(F)(F)F
FALSE

Does this compound meet the criterion Plant response rating, Foxtail, Giant < 90? C#CCN(C)C(=O)c1cc(N(COC(=O)C(C)(C)C)S(=O)(=O)C(F)(F)F)c(C)c(C)c1C
FALSE

Strictly below 90 in Plant response rating, Foxtail, Giant? Cc1c(NS(=O)(=O)C(F)(F)F)cc(C(=O)N2CC(C)OC(C)C2)c(C)c1C (stereo not shown)
FALSE

Plant response rating, Foxtail, Giant strictly < 90 for this compound? CCC1ON=C(c2cc(N(COC(=O)C(C)(C)C)S(=O)(=O)C(F)(F)F)c(C)cc2C)C1CC (stereo not shown) [Compound 344]
FALSE

Given Cc1cc(C)c(C2=NOC(C(C)C)C2)cc1NS(=O)(=O)C(F)(F)F (stereo not shown) , is recorded Plant response rating, Foxtail, Giant strictly lower than 90?
FALSE

====

System: galium (catchweed bedstraw, Galium aparine)
Assay: Test A postemergence, galium
Assay type: in vivo
Details: Postemergence, 31 g ai/ha; visual injury on 0 to 100 scale (0 no effect, 100 complete control), approx. 10 days
readout.type: Plant response rating, Galium
// return a plain number; no unit text

{"molecule": "CCC(C)C(=O)OCN(c1cc(C2=NOC3(CCCC3)C2)c(C)cc1C)S(=O)(=O)C(F)(F)F (stereo not drawn)", "Plant response rating, Galium": 60}
{"molecule": "Cc1c(C(=O)N2CCOCC2)cc(N(S(=O)(=O)C(F)(F)F)S(=O)(=O)C(F)(F)F)c(C)c1F", "Plant response rating, Galium": 50}
{"molecule": "Cc1cc(C)c(N(COC(=O)CC(C)C)S(=O)(=O)C(F)(F)F)cc1C1=NOC2(CCCC2)C1", "Plant response rating, Galium": 20}

Item under review: Cc1cc(C)c(C2=NOC3(C2)CC(C)CC(C)C3)cc1NS(=O)(=O)C(F)(F)F (single isomer, unassigned) . Reported Plant response rating, Galium?
0

I would be grateful if you could share the reported Plant response rating, Galium for Cc1cc(C)c(N(COC(=O)c2ccccc2)S(=O)(=O)C(F)(F)F)cc1C1=NOC2(CCCC2)C1 .
0

What does the record list as Plant response rating, Galium for Cc1cc(C)c(N(S(=O)(=O)C(F)(F)F)S(=O)(=O)C(F)(F)F)cc1N1CC2(CCOCC2)OC1=O ?
90

====

System: goosegrass (Eleusine indica)
Assay: Test A1 postemergence, goosegrass
Assay type: in vivo
Conditions: Postemergence, 125 g ai/ha; 0 to 100 scale
readout.type: Plant response rating, Goosegrass
No unit in the answer, only the number.

These recorded examples may help you get a feel for the data.
{"molecule": "Cc1c(C2=NO[C@@H]3CCC[C@H]23)cc(N(COC(=O)C(C)(C)C)S(=O)(=O)C(F)(F)F)c(C)c1C [Compound 336]", "Plant response rating, Goosegrass": 0}
{"molecule": "Cc1c(C(=O)N2CCCCC2)cc(NS(=O)(=O)C(F)(F)F)c(Cl)c1F [Compound 333]", "Plant response rating, Goosegrass": 30}
{"molecule": "Cc1cc(F)c(C2=NOC3CCCC23)cc1NS(=O)(=O)C(F)(F)F (stereo not drawn) [Compound 310]", "Plant response rating, Goosegrass": 0}
{"molecule": "CCc1cc(C)c(C2=NOC3(CCCC3)C2)cc1NS(=O)(=O)C(F)(F)F [Compound 311]", "Plant response rating, Goosegrass": 0}
{"molecule": "Cc1cc(C)c(C2=NOC3(C)CCCC23)cc1NS(=O)(=O)C(F)(F)F (stereo not drawn) [Compound 340]", "Plant response rating, Goosegrass": 90}
{"molecule": "Cc1cc(Br)c(C2=NOC3CCCC23)cc1NS(=O)(=O)C(F)(F)F (stereo not drawn) [Compound 302]", "Plant response rating, Goosegrass": 10}

Give the reported Plant response rating, Goosegrass for Cc1cc(C)c(N(COC(=O)C(C)C)S(=O)(=O)C(F)(F)F)cc1C1=NOC2CCCC12 (stereo not drawn) [Compound 308] (system: goosegrass (Eleusine indica)).
80

Param readout = Plant response rating, Goosegrass; param system = goosegrass (Eleusine indica); param query = Cc1c(NS(=O)(=O)C(F)(F)F)cc(C(=O)N2CCCCC2)c(C)c1C [Compound 326] ; response: value
80

For the record CCC1ON=C(c2cc(N(COC(=O)C(C)(C)C)S(=O)(=O)C(F)(F)F)c(C)cc2C)C1CC (stereo not drawn) [Compound 344] , what value of Plant response rating, Goosegrass is listed for goosegrass (Eleusine indica)?
30

# returns recorded Plant response rating, Goosegrass (system: goosegrass (Eleusine indica)) for Cc1cc(C)c(N(COC(=O)C(C)(C)C)S(=O)(=O)C(F)(F)F)cc1C(=O)N1CCC(F)(F)CC1 [Compound 350]
80

// map Cc1c(NS(=O)(=O)C(F)(F)F)cc(C(=O)N2CCC(Cl)CC2)c(C)c1C [Compound 356] to recorded Plant response rating, Goosegrass (system: goosegrass (Eleusine indica))
70

What Plant response rating, Goosegrass appears in the records for this molecule with goosegrass (Eleusine indica)? Cc1cc(C)c(N(COC(=O)C(C)(C)C)S(=O)(=O)C(F)(F)F)cc1C(=O)N1CCOCC1 [Compound 362]
90

Test system goosegrass (Eleusine indica); read-out Plant response rating, Goosegrass; what value for CCC1ON=C(c2cc(NS(=O)(=O)C(F)(F)F)c(C)cc2C)C1CC (stereo not drawn) [Compound 343] ?
90

====

System: barnyardgrass (Echinochloa crus-galli)
Test: Test A preemergence, barnyardgrass
Assay type: in vivo
Conditions: Preemergence, 31 g ai/ha; visual injury, 0 to 100 scale (0 no effect, 100 complete control), approx. 10 days
Quick reference: Plant response rating, Barnyardgrass of the listed items.
Answer with the value's number alone.

Worked examples follow.
{"compound": "Cc1cc(C)c(N(COC(=O)CC(C)C)S(=O)(=O)C(F)(F)F)cc1C1=NOC2(CCCC2)C1", "Plant response rating, Barnyardgrass": 0}
{"compound": "CO[C@@H]1CCCN(C(=O)c2cc(NS(=O)(=O)C(F)(F)F)c(C)cc2C)C1", "Plant response rating, Barnyardgrass": 10}

Reported Plant response rating, Barnyardgrass for barnyardgrass (Echinochloa crus-galli), given CCC(C)C(=O)OCN(c1cc(C2=NOC3(CCCC3)C2)c(C)cc1C)S(=O)(=O)C(F)(F)F (centres unmarked) ?
0

Identify the measured Plant response rating, Barnyardgrass of Cc1c(C(=O)N2CCOCC2)cc(N(S(=O)(=O)C(F)(F)F)S(=O)(=O)C(F)(F)F)c(C)c1F for barnyardgrass (Echinochloa crus-galli).
10

====

Plant response rating, Corn values, listed per item
System: corn (Zea mays)
Assay: Test A postemergence, corn
Type: in vivo
Details: Postemergence, 125 g ai/ha; 0 to 100 scale (0 no effect, 100 complete control)
Source text: Seeds of plant species selected from barnyardgrass (Echinochloa crus-galli), kochia (Bassia scoparia), ragweed (common ragweed, Ambrosia artemisiifolia), Ryegrass, Italian (Italian ryegrass, Lolium multiflorum), Foxtail, Giant (giant foxtail, Setaria faberi), and pigweed (Amaranthus retroflexus) were planted into a blend of loam soil and sand and treated preemergence with a directed soil spray using test chemicals formulated in a non-phytotoxic solvent mixture which included a surfactant. […]
The reply should be a number, written without any unit.

{"compound": "Cc1cc(C)c(C2=NOC3(C2)CC(C)CC(C)C3)cc1NS(=O)(=O)C(F)(F)F (single isomer, unassigned) [Compound 167]", "target.or.test.system": "corn (Zea mays)", "Plant response rating, Corn": 10}
{"compound": "Cc1cc(F)c(C(=O)N2CCC(C#N)CC2)cc1N(S(=O)(=O)C(F)(F)F)S(=O)(=O)C(F)(F)F", "target.or.test.system": "corn (Zea mays)", "Plant response rating, Corn": 0}
{"compound": "Cc1cc(C(F)(F)F)c(C(=O)N2CCCCC2)cc1NS(=O)(=O)C(F)(F)F", "target.or.test.system": "corn (Zea mays)", "Plant response rating, Corn": 0}
{"compound": "Cc1cc(C)c(C2=NOC3CCCC23)cc1NS(=O)(=O)C(F)(F)F (stereo not drawn)", "target.or.test.system": "corn (Zea mays)", "Plant response rating, Corn": 10}
{"compound": "Cc1cc(Cl)c(NS(=O)(=O)C(F)(F)F)cc1C1=NOC2(CCCCC2)C1", "target.or.test.system": "corn (Zea mays)", "Plant response rating, Corn": 10}

Please find the next compound below.
What Plant response rating, Corn appears in the records for this compound with corn (Zea mays)? Cc1cc(C)c(C2=NOC3(CCOCC3)C2)cc1NS(=O)(=O)C(F)(F)F
0
